# Assay System: UniProt Q9NYV9
# Sequence (Q9NYV9 whole entry): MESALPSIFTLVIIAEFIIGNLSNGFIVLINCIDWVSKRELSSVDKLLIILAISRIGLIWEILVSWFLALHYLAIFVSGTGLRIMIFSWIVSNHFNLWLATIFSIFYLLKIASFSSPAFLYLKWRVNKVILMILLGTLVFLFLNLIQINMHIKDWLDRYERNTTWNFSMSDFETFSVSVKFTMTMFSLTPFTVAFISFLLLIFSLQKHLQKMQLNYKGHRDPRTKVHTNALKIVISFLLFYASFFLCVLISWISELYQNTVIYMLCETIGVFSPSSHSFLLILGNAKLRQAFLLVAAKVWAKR
# Assay Name: Agonist activity at human TAS2R13 expressed in HEK293T cells co-expressing Galpha15 assessed as increase in intracellular calcium level by Calcium-3 dye based fluorescence assay
pEC50: −log10 of the molar value.
Reported Metric: pEC50

IN: Recorded pEC50 of [Cl-].[K+] [POTASSIUM CHLORIDE] , please.
OUT: 1.82 to 2.30

---

# Assay System: Taste receptor type 2 member 14 (Homo sapiens, UniProt Q9NYV8)
# Sequence (Q9NYV8 whole entry): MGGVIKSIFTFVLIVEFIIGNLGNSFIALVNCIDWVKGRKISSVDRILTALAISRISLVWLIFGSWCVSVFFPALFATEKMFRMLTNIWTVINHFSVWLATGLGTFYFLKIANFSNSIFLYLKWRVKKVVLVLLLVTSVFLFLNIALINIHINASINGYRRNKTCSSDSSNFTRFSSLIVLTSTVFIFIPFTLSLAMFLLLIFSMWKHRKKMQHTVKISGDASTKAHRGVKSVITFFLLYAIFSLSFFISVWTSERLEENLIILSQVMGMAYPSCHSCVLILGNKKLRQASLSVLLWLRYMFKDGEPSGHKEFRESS
# Assay Name: Agonist activity at human TAS2R14 expressed in HEK293T cells co-expressing Galpha15 assessed as increase in intracellular calcium level by Calcium-3 dye based fluorescence assay
Reported Metric: EC50

IN: Recorded EC50 of [Cl-].[K+] [POTASSIUM CHLORIDE] , please.
OUT: 5 to 15 mM

---

# Assay System: Taste receptor type 2 member 60 (Homo sapiens)
# Sequence (P59551 whole entry): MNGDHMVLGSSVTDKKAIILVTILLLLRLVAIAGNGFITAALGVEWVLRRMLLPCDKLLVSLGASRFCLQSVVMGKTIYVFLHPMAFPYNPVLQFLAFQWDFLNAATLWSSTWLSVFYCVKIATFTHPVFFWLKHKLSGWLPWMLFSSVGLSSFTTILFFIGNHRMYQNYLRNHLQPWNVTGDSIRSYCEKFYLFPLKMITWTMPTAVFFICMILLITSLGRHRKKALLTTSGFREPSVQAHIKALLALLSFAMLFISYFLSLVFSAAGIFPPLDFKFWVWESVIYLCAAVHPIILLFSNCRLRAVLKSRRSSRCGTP
# Assay Name: Agonist activity at human TAS2R60 expressed in HEK293T cells co-expressing Galpha15 assessed as increase in intracellular calcium level by Calcium-3 dye based fluorescence assay
Reported Metric: EC50

IN: Recorded EC50 of [Cl-].[K+] [POTASSIUM CHLORIDE] , please.
OUT: 5 to 15 mM

---

# Assay System: UniProt P59538
# Sequence (P59538 whole entry): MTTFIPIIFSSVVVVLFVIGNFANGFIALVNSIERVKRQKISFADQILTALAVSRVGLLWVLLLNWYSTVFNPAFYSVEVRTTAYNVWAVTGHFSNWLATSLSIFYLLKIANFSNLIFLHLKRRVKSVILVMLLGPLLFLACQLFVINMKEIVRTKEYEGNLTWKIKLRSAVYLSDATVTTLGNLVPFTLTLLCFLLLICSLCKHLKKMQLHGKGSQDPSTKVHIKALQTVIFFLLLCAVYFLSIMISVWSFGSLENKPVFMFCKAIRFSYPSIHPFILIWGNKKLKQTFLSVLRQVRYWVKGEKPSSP
# Assay Name: Agonist activity at human TAS2R44 expressed in HEK293T cells co-expressing Galpha15 assessed as increase in intracellular calcium level by Calcium-3 dye based fluorescence assay
Reported Metric: EC50

IN: Recorded EC50 of [Cl-].[K+] [POTASSIUM CHLORIDE] , please.
OUT: 5 to 15 mM

---

# Assay System: Taste receptor type 2 member 4 (Homo sapiens, UniProt Q9NYW5)
# Sequence (Q9NYW5 whole entry): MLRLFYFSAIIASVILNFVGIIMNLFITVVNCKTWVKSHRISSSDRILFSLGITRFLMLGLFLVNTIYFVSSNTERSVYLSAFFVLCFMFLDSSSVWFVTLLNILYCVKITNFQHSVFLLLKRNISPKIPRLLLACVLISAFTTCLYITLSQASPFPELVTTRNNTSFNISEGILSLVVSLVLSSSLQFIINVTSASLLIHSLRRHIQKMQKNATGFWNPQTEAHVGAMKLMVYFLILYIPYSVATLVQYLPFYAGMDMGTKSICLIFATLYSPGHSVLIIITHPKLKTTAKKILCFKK
# Assay Name: Agonist activity at human TAS2R4 expressed in HEK293T cells co-expressing Galpha15 assessed as increase in intracellular calcium level by Calcium-3 dye based fluorescence assay
Reported Metric: EC50

IN: Recorded EC50 of [Cl-].[K+] [POTASSIUM CHLORIDE] , please.
OUT: 5 to 15 mM
